- System: GST-tagged Cn
- testProtocol: PEPperPRINT peptide microarray binding assay with GST-tagged Cn
- cond: mean over the spots listed under Location on chip
Labelling: Chip Fluorescence (mean) reported below 0.6 becomes true; at or above becomes false.

Use the examples below as a reference point.
1. TFWTNPQFKITLEELD [SeqRBMlowT_5669] :: true
2. TFWTNPQIKLSLTEKD [SeqCAPN11_Camelus_ferus] :: false
3. NMGTGVGIVITITEAV [SeqAKAP79_Meleagris_gallopavo] :: false
4. TFWTNPQYKITLEEED [SeqRBMlowT_3204] :: false
5. KAYMCPYMDFQDGGRR [SeqRBM_4270] :: true

Ask: Regarding AAGAGVGIVITVTEAE [SeqRBMlowT_180] , kindly confirm whether its Chip Fluorescence (mean) is beneath 0.6.
Reply: false

Ask: Regarding HVSSSPRITITPTQHR [SeqRBMlowT_743] , kindly confirm whether its Chip Fluorescence (mean) is beneath 0.6.
Reply: false

Ask: Regarding YRDSWVTACQKIQSKI [Seqrandom_9988] , kindly confirm whether its Chip Fluorescence (mean) is beneath 0.6.
Reply: true

Ask: Regarding TFWSNPQYKITLEEPD [SeqRBMlowT_9677] , kindly confirm whether its Chip Fluorescence (mean) is beneath 0.6.
Reply: false

Ask: Regarding TFWINPQIVITLADED [SeqRBMlowT_2933] , kindly confirm whether its Chip Fluorescence (mean) is beneath 0.6.
Reply: true

Ask: Regarding VSLYEDALGLGQFSLS [SeqRBM_4294] , kindly confirm whether its Chip Fluorescence (mean) is beneath 0.6.
Reply: true

Ask: Regarding LKDEFPEVRLNIISSL [SeqRBMlowT_1023] , kindly confirm whether its Chip Fluorescence (mean) is beneath 0.6.
Reply: false

Ask: Regarding PGDDQPGIIVHPCEEP [SeqRBMlowT_1949] , kindly confirm whether its Chip Fluorescence (mean) is beneath 0.6.
Reply: false

Ask: Regarding TYWTNPQFRVTLEDPD [SeqRBMlowT_4395] , kindly confirm whether its Chip Fluorescence (mean) is beneath 0.6.
Reply: false

Ask: Regarding TLWTNPQYHITLPEED [SeqRBM_3002] , kindly confirm whether its Chip Fluorescence (mean) is beneath 0.6.
Reply: false
